- target: ΔF508-CFTR (Homo sapiens, UniProt P13569, DEL508-508)
- Construct: expressed in transfected cells
- Sequence (P13569 with tags, fused parts or gaps DEL508-508): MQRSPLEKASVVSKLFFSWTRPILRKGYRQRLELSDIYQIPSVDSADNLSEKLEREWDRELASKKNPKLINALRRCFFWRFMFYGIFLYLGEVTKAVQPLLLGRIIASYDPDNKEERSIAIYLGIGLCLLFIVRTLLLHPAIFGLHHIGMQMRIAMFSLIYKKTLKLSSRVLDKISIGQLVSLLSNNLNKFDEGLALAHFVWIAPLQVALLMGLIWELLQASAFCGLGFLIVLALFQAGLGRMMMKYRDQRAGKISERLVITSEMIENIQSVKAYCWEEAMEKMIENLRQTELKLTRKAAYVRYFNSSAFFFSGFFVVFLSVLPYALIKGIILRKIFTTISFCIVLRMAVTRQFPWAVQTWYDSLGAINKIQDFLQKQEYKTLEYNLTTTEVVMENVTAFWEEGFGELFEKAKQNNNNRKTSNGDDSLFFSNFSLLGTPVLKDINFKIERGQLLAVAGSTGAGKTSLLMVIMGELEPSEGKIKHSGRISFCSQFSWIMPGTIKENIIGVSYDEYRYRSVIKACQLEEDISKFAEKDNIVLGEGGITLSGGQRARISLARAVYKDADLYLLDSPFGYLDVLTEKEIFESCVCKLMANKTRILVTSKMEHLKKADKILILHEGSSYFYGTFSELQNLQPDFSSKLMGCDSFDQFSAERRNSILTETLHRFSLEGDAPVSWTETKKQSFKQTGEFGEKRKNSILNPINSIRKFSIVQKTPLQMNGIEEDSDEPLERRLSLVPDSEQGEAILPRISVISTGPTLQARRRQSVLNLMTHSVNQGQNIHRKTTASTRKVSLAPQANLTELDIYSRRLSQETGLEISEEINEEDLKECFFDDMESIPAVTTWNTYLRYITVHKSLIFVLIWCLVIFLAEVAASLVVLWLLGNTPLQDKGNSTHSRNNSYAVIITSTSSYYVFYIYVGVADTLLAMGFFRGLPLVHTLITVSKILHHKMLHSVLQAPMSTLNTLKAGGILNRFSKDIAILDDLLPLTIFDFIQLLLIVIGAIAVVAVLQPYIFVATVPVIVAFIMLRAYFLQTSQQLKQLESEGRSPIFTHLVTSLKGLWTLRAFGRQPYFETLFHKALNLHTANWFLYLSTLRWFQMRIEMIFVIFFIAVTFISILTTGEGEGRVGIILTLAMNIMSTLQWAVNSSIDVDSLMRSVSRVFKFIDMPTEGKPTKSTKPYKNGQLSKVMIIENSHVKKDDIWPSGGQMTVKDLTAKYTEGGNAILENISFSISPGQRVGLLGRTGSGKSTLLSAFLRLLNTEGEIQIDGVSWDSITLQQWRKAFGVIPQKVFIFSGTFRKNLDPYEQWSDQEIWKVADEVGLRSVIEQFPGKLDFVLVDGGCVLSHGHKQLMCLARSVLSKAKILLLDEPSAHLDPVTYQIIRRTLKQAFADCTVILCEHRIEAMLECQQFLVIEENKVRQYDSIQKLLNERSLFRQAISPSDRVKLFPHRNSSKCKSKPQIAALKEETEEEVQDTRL
- method_notes: Membrane potential optical assay (FRET/VIPR), identification of correction compounds
- Type: cell-based
- test_settings: relative efficacy
observation_type: Emax

In the examples that follow, each entry is paired with its recorded Emax.
- compound: "CC(c1nc2ccccc2c(=O)n1C)N1CCN(C(=O)c2ccc(Br)cc2)CC1 (stereo not shown)"
  target: "ΔF508-CFTR (Homo sapiens, UniProt P13569, DEL508-508)"
  observation_type: "Emax"
  assay_value: "< 25%"
- compound: "Cc1c(S(=O)(=O)N2CCN(C(C)c3nc4ccccc4c(=O)n3C)CC2)sc2ccc(F)cc12 (stereo not shown)"
  target: "ΔF508-CFTR (Homo sapiens, UniProt P13569, DEL508-508)"
  observation_type: "Emax"
  assay_value: "25 to 100%"
- compound: "COc1ccc(S(=O)(=O)N2CCC(C(C)c3nc(OC4CCCC4)c4ccccc4n3)CC2)cc1 (stereo not shown)"
  target: "ΔF508-CFTR (Homo sapiens, UniProt P13569, DEL508-508)"
  observation_type: "Emax"
  assay_value: "> 100%"

Now consider a different compound.
Query string: Using known records, supply Emax for CC(c1nc2cccc(Cl)c2c(=O)n1C)N1CCN(S(=O)(=O)c2ccc(Cl)cc2)CC1 (stereo not shown)
Result string: < 25%
